Recorded values, source patent US20160222124A1.

target: human CD40 (cellular) (human, UniProt P25942 21-277); experiment: flow cytometry; RAMOS cells; humanized per legend
Sequence (P25942 21-277): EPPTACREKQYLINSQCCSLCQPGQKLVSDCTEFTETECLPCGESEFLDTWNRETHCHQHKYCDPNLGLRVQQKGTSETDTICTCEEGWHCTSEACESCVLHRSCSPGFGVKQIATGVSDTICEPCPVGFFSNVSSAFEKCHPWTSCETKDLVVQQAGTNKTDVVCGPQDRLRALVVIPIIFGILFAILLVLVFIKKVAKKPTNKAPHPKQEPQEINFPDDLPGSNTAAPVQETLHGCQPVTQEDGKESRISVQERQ
Hi there, I'd appreciate the recorded EC50 for every entry that follows.
Give the value, in units of nM, as a plain number.

Report EC50 for 2H11 (antibody, V domains shown) VH: EVQLQQSGAELVRPGASVKLSCTASGFNIKDYYVHWVKQRPEKGLEWIGRIDPEDGDSKYAPKFQGKATMTADTSSNTAYLHLSSLTSEDTAVYYCTTSYYVGTYGYWGQGTTLTVSS VL: QIVLTQSPAIMSASPGEKVTITCSASSSVSYMLWFQQKPGTSPKLWIYSTSNLASGVPARFGGSGSGTSYSLTISRMEAEDAATYYCQQRTFYPYTFGGGTKLEIK
0.32

Report EC50 for 20E2 (antibody, V domains shown) VH: EVQLVESGGGLVKPGGSRKLSCAASGFTFSDYGMHWVRQAPEKGLEWVAYISSGNRIIYYADTVKGRFTISRDNAKNTLFLQMTSLRSEDTALYYCARQDGYRYAMDYWGQGTSVTVSS VL: DIVMTQSPSSLTVTAGEKVTMSCKSSQSLLNSGNQKNYLTWHQQKPGQPPKLLIYWTSTRESGVPDRFTGSGSGTDFTLTISNLQAEDLAVYYCQNDYTYPLTFGAGTKLELK
1.22

Report EC50 for 19B10 (antibody, V domains shown) VH: EVQLQQSGAELVRPGASVQLSCTASGFNIKDYYVHWVKQRPEKGLEWIGRIDPEDGDTKFAPKFQGKATMTADTSSNTVYLHLSSLTSEDTAVYYCTTSYYVGTYGYWGQGTTLTVSS VL: QIVLTQSPAIMSASPGEKVTITCSASSSVSYMLWFQQKPGTSPKLWIYSTSNLASGVPARFSGSGSGTSYSLTISRMEAEDAATYYCQQRTFYPYTFGGGTKLEIK
0.36

Report EC50 for 10F2 (antibody, V domains shown) VH: EVQLQQSGAELVRPGASVKLSCTASGFNIKDYYIHWVKQRPEKGLEWIGRIDPEDGDTKYDPKFQGKATMTADTSSNTAYLHLSSLTSEDTAVYYCTTSYYVGTYGYWGQGTTLTVSS VL: QIVLTQSPTIMSASPGEKVIITCSATSSVSYILWFQQKPGTSPKLWIYSTSNLASGVPARFSGSGSGASYSLTISRMEAEDAATYYCQQRTFYPYTFGGGTKLEIK
0.21
